Number of mice which survived up to 11 days for assorted molecules
Test system: P. berghei ANKA
assay.summary: In vivo efficacy, 4-day oral treatment of infected mice
Set-up: species or system Plasmodium berghei in female Swiss albino mice
condition.set: dosage 10 mg/kg oral; 5 mice per group
The answer should be written as a number, with no unit following it.

{"molecule": "C[C@H]1[C@H](OC(=O)CCC(=O)O)O[C@@H]2O[C@@]3(C)CC[C@H]4[C@H](C)CC[C@@H]1[C@@]24OO3 [Artesunate]", "meas.value": 5}

Record request: Number of mice which survived up to 11 days value, item "CNCC(=O)Nc1ccc(Oc2ccc(Cl)cc2)c(Cl)c1" 3

Field entry: C[C@H]1[C@H](OC(=O)CCC(=O)Nc2ccc(Oc3ccc(Cl)cc3)c(Cl)c2)O[C@@H]2O[C@@]3(C)CC[C@H]4[C@H](C)CC[C@@H]1[C@@]24OO3 [Artesunate-aniline hybrid] 3

Field entry: "CNCC(=O)O" 1

Field entry: CCN(CC)CCCC(C)Nc1ccnc2cc(Cl)ccc12 (centres unmarked) 5

---

assay.summary: MTT cytotoxicity assay
Format: cell-based, African green monkey (Cercopithecus aethiops)
condition.set: African green monkey (Cercopithecus aethiops)
CC50 at 48 h for assorted compounds
Enter your answer as a number in µg/mL; do not include the unit.

{"compound": "COc1cccc2c1C(=O)c1c(O)c3c(c(O)c1C2=O)C[C@@](O)(C(=O)CO)C[C@@H]3O[C@H]1C[C@H](N)[C@H](O)[C@H](C)O1", "units": "µg/mL", "CC50 at 48 h": 1.96}

Record request: CC50 at 48 h value, item C[C@H]1[C@H](OC(=O)CCC(=O)O)O[C@@H]2O[C@@]3(C)CC[C@H]4[C@H](C)CC[C@@H]1[C@@]24OO3 [Artesunate] 19.7

---

Test system: P. berghei ANKA
assay.summary: In vivo efficacy, 4-day oral treatment of infected mice
Parameters: species or system Plasmodium berghei in female Swiss albino mice
condition.set: dosage 0.625 mg/kg oral; 5 mice per group
measured.property: Number of mice which survived up to 11 days
The answer should be written as a number, with no unit following it.

Sample records with Number of mice which survived up to 11 days:
{"compound": "C[C@H]1[C@H](OC(=O)CCC(=O)Nc2ccc(Oc3ccc(Cl)cc3)c(Cl)c2)O[C@@H]2O[C@@]3(C)CC[C@H]4[C@H](C)CC[C@@H]1[C@@]24OO3 [Artesunate-aniline hybrid]", "meas.value": 1}
{"compound": "CCN(CC)CCCC(C)Nc1ccnc2cc(Cl)ccc12 (centres unmarked) [Chloroquine]", "meas.value": 3}
{"compound": "C[C@H]1[C@H](OC(=O)CCC(=O)O)O[C@@H]2O[C@@]3(C)CC[C@H]4[C@H](C)CC[C@@H]1[C@@]24OO3 [Artesunate]", "meas.value": 2}
{"compound": "CNCC(=O)Nc1ccc(Oc2ccc(Cl)cc2)c(Cl)c1 [Sarcosine-aniline hybrid]", "meas.value": 1}

Continue with the next compound.
Record request: Number of mice which survived up to 11 days value, item CNCC(=O)O [Sarcosine, N-methyl glycine] 0

---

Tested on: P. berghei ANKA
assay.summary: In vivo efficacy, 4-day oral treatment of infected mice
Parameters: species or system Plasmodium berghei in female Swiss albino mice
condition.set: dosage 1.25 mg/kg oral; 5 mice per group
Number of mice which survived up to 11 days for assorted molecules
The answer should be written as a number, with no unit following it.

{"molecule": "C[C@H]1[C@H](OC(=O)CCC(=O)O)O[C@@H]2O[C@@]3(C)CC[C@H]4[C@H](C)CC[C@@H]1[C@@]24OO3 [Artesunate]", "meas.value": 3}
{"molecule": "CNCC(=O)Nc1ccc(Oc2ccc(Cl)cc2)c(Cl)c1", "meas.value": 1}
{"molecule": "CNCC(=O)O", "meas.value": 1}
{"molecule": "CCN(CC)CCCC(C)Nc1ccnc2cc(Cl)ccc12 (centres unmarked)", "meas.value": 3}

Continue with the next molecule.
Record request: Number of mice which survived up to 11 days value, item C[C@H]1[C@H](OC(=O)CCC(=O)Nc2ccc(Oc3ccc(Cl)cc3)c(Cl)c2)O[C@@H]2O[C@@]3(C)CC[C@H]4[C@H](C)CC[C@@H]1[C@@]24OO3 [Artesunate-aniline hybrid] 3
